Data provenance is the supplement of paper PMC6757056.

B1: library; a variant is named by its letters at N, in order (parent)
chain: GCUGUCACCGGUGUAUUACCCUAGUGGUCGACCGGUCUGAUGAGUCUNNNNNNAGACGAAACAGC

variants of: B1; assay: normalized RNA/DNA level without ligand (relative to sTRSVctl = 100) (log10 (% of sTRSVctl)); ligand: hypoxanthine (xanthine aptamer); higher = less ribozyme self-cleavage, higher mRNA level; details: HEK293T, reporter: mCherry (pCS4076), ligand present: no
Provide the recorded normalized RNA/DNA level without ligand (log10) for the entries that follow.
One number for each entry.

Take a look at these entries with their results.
GCUGUCACCGGUGUAUUACCCUAGUGGUCGACCGGUCUGAUGAGUCUUUGAGGAGACGAAACAGC [UUGAGG] = 1.72
GCUGUCACCGGUGUAUUACCCUAGUGGUCGACCGGUCUGAUGAGUCUCUCCGAAGACGAAACAGC [CUCCGA] = 1.88

Each of the following entries comes with a recorded value; kindly state normalized RNA/DNA level without ligand (log10) for each.
1. GCUGUCACCGGUGUAUUACCCUAGUGGUCGACCGGUCUGAUGAGUCUUGCAAAAGACGAAACAGC [UGCAAA]
2. GCUGUCACCGGUGUAUUACCCUAGUGGUCGACCGGUCUGAUGAGUCUCUAAAGAGACGAAACAGC [CUAAAG]

Output:
1. 1.79
2. 1.67

Please supply normalized RNA/DNA level without ligand (log10) for each of the following items, keeping them in order.
1. GCUGUCACCGGUGUAUUACCCUAGUGGUCGACCGGUCUGAUGAGUCUGAGCUUAGACGAAACAGC [GAGCUU]
2. GCUGUCACCGGUGUAUUACCCUAGUGGUCGACCGGUCUGAUGAGUCUACUAUUAGACGAAACAGC [ACUAUU]
3. GCUGUCACCGGUGUAUUACCCUAGUGGUCGACCGGUCUGAUGAGUCUUCCGGAAGACGAAACAGC [UCCGGA]
4. GCUGUCACCGGUGUAUUACCCUAGUGGUCGACCGGUCUGAUGAGUCUCCUCUGAGACGAAACAGC [CCUCUG]
5. GCUGUCACCGGUGUAUUACCCUAGUGGUCGACCGGUCUGAUGAGUCUGAUGGUAGACGAAACAGC [GAUGGU]
6. GCUGUCACCGGUGUAUUACCCUAGUGGUCGACCGGUCUGAUGAGUCUCGAGCUAGACGAAACAGC [CGAGCU]
7. GCUGUCACCGGUGUAUUACCCUAGUGGUCGACCGGUCUGAUGAGUCUACCGCUAGACGAAACAGC [ACCGCU]
8. GCUGUCACCGGUGUAUUACCCUAGUGGUCGACCGGUCUGAUGAGUCUUUCGGUAGACGAAACAGC [UUCGGU]

Output:
1.85
1.82
1.75
1.98
1.76
1.86
1.89
1.78

For the 5 variants below, give their normalized RNA/DNA level without ligand (log10) values.
1. GCUGUCACCGGUGUAUUACCCUAGUGGUCGACCGGUCUGAUGAGUCUGCGCAUAGACGAAACAGC [GCGCAU]
2. GCUGUCACCGGUGUAUUACCCUAGUGGUCGACCGGUCUGAUGAGUCUCAUGGUAGACGAAACAGC [CAUGGU]
3. GCUGUCACCGGUGUAUUACCCUAGUGGUCGACCGGUCUGAUGAGUCUGUACCGAGACGAAACAGC [GUACCG]
4. GCUGUCACCGGUGUAUUACCCUAGUGGUCGACCGGUCUGAUGAGUCUAAGAAAAGACGAAACAGC [AAGAAA]
5. GCUGUCACCGGUGUAUUACCCUAGUGGUCGACCGGUCUGAUGAGUCUACUGUCAGACGAAACAGC [ACUGUC]

Output:
1: 1.55; 2: 1.75; 3: 1.62; 4: 1.6; 5: 1.9

Please state normalized RNA/DNA level without ligand (log10) for every variant in the list that follows.
1. GCUGUCACCGGUGUAUUACCCUAGUGGUCGACCGGUCUGAUGAGUCUAGAGACAGACGAAACAGC [AGAGAC]
2. GCUGUCACCGGUGUAUUACCCUAGUGGUCGACCGGUCUGAUGAGUCUGCUCUGAGACGAAACAGC [GCUCUG]
3. GCUGUCACCGGUGUAUUACCCUAGUGGUCGACCGGUCUGAUGAGUCUGGAAGUAGACGAAACAGC [GGAAGU]
4. GCUGUCACCGGUGUAUUACCCUAGUGGUCGACCGGUCUGAUGAGUCUUAAAUCAGACGAAACAGC [UAAAUC]
5. GCUGUCACCGGUGUAUUACCCUAGUGGUCGACCGGUCUGAUGAGUCUGUAAUCAGACGAAACAGC [GUAAUC]

Output:
1. 1.77
2. 1.32
3. 1.7
4. 1.97
5. 1.76
